target: α4β2 nicotinic acetylcholine receptor (Rattus norvegicus, UniProt P09483+P12390); construct: from tissue; host or cells: rat cerebral cortex membranes; experiment: [3H]-N-methylcarbamyl choline (3H-MCC) displacement, rat cerebral cortex membranes; type: binding; details: displacement of [3H]-MCC; mean of two experiments; Cheng-Prusoff with Kd 5 nM; read-out: α4β2 Ki
Sequence (P09483 31-630): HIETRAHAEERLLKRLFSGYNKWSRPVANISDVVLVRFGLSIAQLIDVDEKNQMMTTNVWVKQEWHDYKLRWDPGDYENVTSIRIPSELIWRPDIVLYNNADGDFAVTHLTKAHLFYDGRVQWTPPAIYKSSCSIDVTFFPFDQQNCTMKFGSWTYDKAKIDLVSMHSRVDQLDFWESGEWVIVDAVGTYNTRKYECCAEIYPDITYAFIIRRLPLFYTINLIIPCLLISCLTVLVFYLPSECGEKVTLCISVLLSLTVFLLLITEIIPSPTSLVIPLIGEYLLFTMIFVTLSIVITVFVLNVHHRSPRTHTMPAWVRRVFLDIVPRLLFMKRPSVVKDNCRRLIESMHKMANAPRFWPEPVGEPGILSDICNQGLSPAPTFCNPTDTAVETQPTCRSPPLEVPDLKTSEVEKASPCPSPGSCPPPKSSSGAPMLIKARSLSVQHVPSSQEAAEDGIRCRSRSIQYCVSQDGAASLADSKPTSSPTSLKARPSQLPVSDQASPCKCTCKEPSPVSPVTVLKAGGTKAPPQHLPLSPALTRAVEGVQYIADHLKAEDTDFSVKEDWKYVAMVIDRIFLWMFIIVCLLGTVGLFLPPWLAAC
Sequence (P12390 25-500): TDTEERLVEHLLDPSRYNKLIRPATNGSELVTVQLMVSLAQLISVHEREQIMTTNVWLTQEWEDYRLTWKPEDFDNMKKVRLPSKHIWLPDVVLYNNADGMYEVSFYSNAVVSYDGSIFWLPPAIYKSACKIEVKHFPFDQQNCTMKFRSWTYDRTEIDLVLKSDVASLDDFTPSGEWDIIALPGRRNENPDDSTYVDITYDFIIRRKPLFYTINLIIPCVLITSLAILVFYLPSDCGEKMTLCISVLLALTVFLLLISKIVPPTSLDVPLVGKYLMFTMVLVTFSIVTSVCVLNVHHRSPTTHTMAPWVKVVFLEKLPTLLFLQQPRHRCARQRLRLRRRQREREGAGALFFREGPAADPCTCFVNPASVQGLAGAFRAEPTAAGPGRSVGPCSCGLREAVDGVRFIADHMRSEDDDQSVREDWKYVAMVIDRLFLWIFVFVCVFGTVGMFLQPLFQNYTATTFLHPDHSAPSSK
pKi: −log10 of the molar value.
METRIC NAME: pKi

Query :: Report pKi for COc1ccc(C=C2CCC[N+](C)=C2c2cccnc2)c(OC)c1 [GTS-58]
Result :: < 5.30

---

target: α4β2 nicotinic acetylcholine receptor (Rattus norvegicus, UniProt P09483+P12390); construct: from tissue; host or cells: rat cerebral cortex membranes; test: [3H]-N-methylcarbamyl choline (3H-MCC) displacement, rat cerebral cortex membranes; format: binding; details: read-out: α4β2 Ki
METRIC NAME: pKi
One number for each entry, as −log10 of the molar value.

Cc1ccc(C=C2CCCN=C2c2cccnc2)c(C)c1 [GTS-39, 3-(2,4-Dimethylbenzylidene)anabaseine]
6.00
C(=C1CCCN=C1c1cccnc1)c1ccco1 [GTS-43, 3-(2-Furylidene)anabaseine]
6.19
CCCOc1ccc(C=C2CCCN=C2c2cccnc2)c(OCCC)c1 [GTS-53, 3-(2,4-Dipropoxybenzylidene)anabaseine]
5.35
COc1ccccc1C=C1CCCN=C1c1cccnc1 [GTS-16, 3-(2-Methoxybenzylidene)anabaseine]
6.08
COc1ccc(C=C2CCCN=C2c2cccnc2)c(O)c1 [GTS-51]
5.82
CN(C)CCCOc1ccc(C=C2CCCN=C2c2cccnc2)cc1 [GTS-15]
5.80
COc1cc(OC)c(C=C2CCCN=C2c2cccnc2)c(OC)c1 [GTS-35]
6.77
CC(C)Oc1ccc(C=C2CCCN=C2c2cccnc2)c(OC(C)C)c1 [GTS-54]
6.00

Need pKi for each of these compounds.
1. Cc1cc(C)c(C=C2CCCN=C2c2cccnc2)c(C)c1 [GTS-40, 3-(2,46,-Trimethylbenzylidene)anabaseine]
2. Oc1ccc(C=C2CCCN=C2c2cccnc2)cc1 [GTS-7, 3-(4-Hydroxybenzylidene)anabaseine]
3. Clc1ccc(C=C2CCCN=C2c2cccnc2)c(Cl)c1 [GTS-38, 3-(2,4-Dichlorobenzylidene)anabaseine]
4. CCCCCOc1ccc(C=C2CCCN=C2c2cccnc2)c(O)c1 [GTS-56]
5. COc1ccc(/C=C2\CCCN=C2c2cccnc2)c(OC)c1 [GTS-21, 3-(2,4-Dimethoxybenzylidene)anabaseine]

Result ::
1: 6.30; 2: 7.60; 3: 5.70; 4: 6.60; 5: 6.92

---

biological target: α4β2 nicotinic acetylcholine receptor (Rattus norvegicus, UniProt P09483+P12390); construct: from tissue; host or cells: rat cerebral cortex membranes; experiment: [3H]-N-methylcarbamyl choline (3H-MCC) displacement, rat cerebral cortex membranes; assay type: binding
METRIC NAME: pKi
Give bare numbers, as −log10 of the molar value.

Solved entries (count: 5):
Cc1ccncc1C1=NCCCC1 [GTS-28, 4′-Methylanabaseine]
5.42
Cc1ncccc1C1=NCCCC1 [GTS-27, 2′-Methylanabaseine]
4.48
Cc1cncc(C2=NCCCC2)c1 [GTS-60, 5′-Methylanabaseine]
6.89
Cc1ccc(C2=NCCCC2)cn1 [GTS-26, 6′-Methylanabaseine]
7.59
COc1cccc(C=C2CCCN=C2c2cccnc2)c1 [GTS-20, 3-(3-Methoxybenzylidene)anabaseine]
5.40

With those in mind, consider the next compound.
Query :: Supply reported pKi belonging to this compound: COc1ccc(C=C2CCCN=C2c2cccnc2)cc1 [GTS-2, 3-(4-Methoxybenzylidene)anabaseine]
Result :: 6.49

---

molecular target: α4β2 nicotinic acetylcholine receptor (Rattus norvegicus, UniProt P09483+P12390); construct: from tissue; host or cells: rat cerebral cortex membranes; assay: [3H]-N-methylcarbamyl choline (3H-MCC) displacement, rat cerebral cortex membranes; assay type: binding; settings: read-out: α4β2 Ki
METRIC NAME: Ki

Example entries and their recorded answers appear below.
COc1ccc(C=C2CCCN=C2c2ccccc2)c(OC)c1 [GTS-63]
> 5 µM
Clc1ccc(C=C2CCCN=C2c2cccnc2)cc1 [GTS-8, 3-(4-Chlorobenzylidene)anabaseine]
> 5 µM
COc1cc(C=C2CCCN=C2c2cccnc2)ccc1O [GTS-23]
> 5 µM

Could you now look at the following molecule, please?
Query :: Quote α4β2 nicotinic acetylcholine receptor (Rattus norvegicus, UniProt P09483+P12390) Ki for entry O=[N+]([O-])c1ccc(C=C2CCCN=C2c2cccnc2)cc1 [GTS-3, 3-(4-Nitrobenzylidene)anabaseine] .
Result :: > 5 µM
